Listed here: items and their measured composite z-score.
# Target Of Assay: Concanavalin-A (Canavalia ensiformis) (UniProt P02866)
# Sequence (P02866 whole entry, looked up): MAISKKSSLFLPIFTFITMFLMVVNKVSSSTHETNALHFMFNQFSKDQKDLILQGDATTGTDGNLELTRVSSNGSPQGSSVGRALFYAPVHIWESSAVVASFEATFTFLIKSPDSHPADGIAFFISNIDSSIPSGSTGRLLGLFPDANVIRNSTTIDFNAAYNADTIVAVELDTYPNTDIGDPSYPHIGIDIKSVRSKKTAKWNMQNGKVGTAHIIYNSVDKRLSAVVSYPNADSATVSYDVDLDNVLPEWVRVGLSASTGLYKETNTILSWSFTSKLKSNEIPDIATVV
# Experiment: ConA small-molecule binders, primary screen, artefact control for SMM control protein annotation, biochemical, small-molecule microarray, Alexa647 label, 635 nm (AID 1127);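 further: z combines 667 nm emission intensity with signal-to-noise across three replicate slides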
# Condition Details: ConA-A647 binding fluorescence, higher = more signal
Measurement Name: composite z-score

Compound	Measurement Name	Test Value
Cc1cccc([C@H]2C[C@H]3C(I)=C[C@@H]2C(=O)[C@]32CO2)c1	composite z-score	-0.478
[N-]=[N+]=NCc1ccccc1[C@@H]1OC(c2ccc(OCCCO)cc2)=N[C@]1(Cc1ccccc1)C(=O)NCCN1CCOCC1	composite z-score	1.12
CC1CC/C=C\[C@H]2OC34C=CCN(CCN5CCOCC5)C(=O)[C@H]3N(C(C)CO)C(=O)[C@@H]4C2C(=O)O1 (some centres undefined)	composite z-score	-0.371
CN1C(=O)C2C(C1=O)C1C=C(CCCO)C2C(C2CC2)N1Cc1cc2c(cc1Br)OCO2 (centres undefined)	composite z-score	0.738
COC(=O)[C@@]1(Cc2ccc(OC)cc2)[C@H]2c3cc(C(=O)N4CCCC4)n(Cc4ccc(OC(F)(F)F)cc4)c3C[C@H]2CN1C(=O)c1ccccc1	composite z-score	1.01
COc1ccc([Si](C)(C)[C@H]2[C@H](CCO)O[C@@]3(C(=O)N(Cc4ccccc4)c4ccc(N5C(=O)c6ccccc6Oc6ccccc65)cc43)[C@@H]2C)cc1	composite z-score	0.823
O=C1O[C@H](c2ccccc2)[C@H](c2ccccc2)N2[C@H]1[C@@H](C(=O)N1CCCCCCC1)[C@]1(C(=O)Nc3ccc(C#CC4(O)CCCCCC4)cc31)[C@H]2c1ccc(O)cc1	composite z-score	1.07
C=CCN1C(=O)[C@@]2(O[C@@H](CCO)[C@H]([Si](C)(C)c3ccc(OC)cc3)[C@H]2C)c2cc(N3CCOC3=O)ccc21	composite z-score	0.993
CC(C)C[C@@H]1NC(=O)[C@@]23C(=O)N[C@@H](Cc4ccccc4)C2[C@H](C)[C@@]2(C)O[C@H]2C3/C=C/C/C=C\CNC(=O)[C@@H](C)NC1=O (some centres undefined)	composite z-score	0.075
COC(=O)C1=CC(CCCO)=CC(C)N(Cc2cccc(OC(F)(F)F)c2)C=C1C(=O)OC (centres undefined)	composite z-score	0.355
CCOC(=O)C1=C[C@@H](C(C)(C)C)N(S(=O)(=O)c2ccc(C)cc2)[C@H]1c1cccc(Cl)c1	composite z-score	1.11
[N-]=[N+]=NCc1ccccc1C[C@]1(C(=O)N2CCOCC2)COC(c2ccc(OCCCO)cc2)=N1	composite z-score	0.468
CN(C)CCCC[C@@H]1NC(=O)[C@@H]2C[C@H](C(=O)O)[C@H](c3cccc(OCCO)c3)N2C1=O	composite z-score	0.567
COCCOC(=O)N1C(=O)[C@@]2(c3ccccc31)[C@H](c1ccc(OCCO)cc1)N1[C@H](c3ccccc3)[C@H](c3ccccc3)OC(=O)[C@H]1[C@@H]2C(=O)N1CCCCCCC1	composite z-score	1.24

###

# Experiment: A549 lung cancer cell viability effects, profiling panel, resazurin fluorescence, 24 h, PK04 Diversity Set (AID 1171); further: test concentration not given here
# Condition Details: higher = more signal, called active from +8 up or from −8 down
Listed here: items and their measured z-score.

Compound	z-score
COC(=O)[C@@]1(Cc2ccc(F)cc2)[C@H]2c3cc(C(=O)N4CCCC4)n(CC4CC4)c3C[C@H]2CN1C(=O)c1ccccc1	-0.665
C=CCN1C(=O)[C@@]2(O[C@@H](CCO)[C@H]([Si](C)(C)c3ccc(OC)cc3)[C@H]2C)c2cc(N3CCOC3=O)ccc21	-3.36
C=C(CCCC)C(=O)CC[C@H](OC(=O)c1ccccc1-c1ccccc1C(=O)O)c1ccccc1OCCO	-0.22
CC(C)(C)OC(=O)CC[C@]1(C(=O)N2CCCCC2)COC(c2ccc(OCCCO)cc2)=N1	2.58
COC(=O)C1=CC(CCCO)=CC(c2ccc(CN3CCCC3)cc2)N(Cc2cc3c(cc2Br)OCO3)C=C1C(=O)OC (stereo not drawn)	0.652
COc1cc(NN2C(C(O)c3ccccc3)C=CC3C(=O)N(C)C(=O)C32)cc(OC)c1OC (stereo not drawn)	-1.52
[N-]=[N+]=NCc1ccccc1C[C@]1(C(=O)N2CCOCC2)COC(c2ccc(OCCCO)cc2)=N1	-0.36
CC(C)[C@H]1NC(=O)[C@@]23C(=O)N[C@@H](Cc4ccccc4)C2[C@H](C)[C@@]2(C)O[C@H]2C3/C=C/C/C=C\CNC(=O)[C@H](Cc2ccccc2)NC1=O (stereo partly drawn)	-0.739
